# Test Target: UniProt:Q92769
# Sequence (Q92769 whole entry): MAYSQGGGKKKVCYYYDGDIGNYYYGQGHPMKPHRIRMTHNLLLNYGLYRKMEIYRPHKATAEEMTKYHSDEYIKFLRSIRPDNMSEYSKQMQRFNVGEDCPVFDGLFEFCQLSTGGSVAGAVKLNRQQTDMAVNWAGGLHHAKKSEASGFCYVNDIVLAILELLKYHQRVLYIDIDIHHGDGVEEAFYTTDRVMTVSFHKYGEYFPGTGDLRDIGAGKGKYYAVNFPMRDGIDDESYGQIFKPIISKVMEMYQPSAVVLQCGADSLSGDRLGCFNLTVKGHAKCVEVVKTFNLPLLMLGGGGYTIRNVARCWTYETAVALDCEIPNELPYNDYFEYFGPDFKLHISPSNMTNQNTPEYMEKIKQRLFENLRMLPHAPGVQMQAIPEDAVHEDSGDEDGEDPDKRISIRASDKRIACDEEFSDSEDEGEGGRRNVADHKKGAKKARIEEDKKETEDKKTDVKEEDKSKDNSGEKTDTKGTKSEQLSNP
Measured Metric: IC50 (µM)
Numeric only. Scale: µM

Ask: Retrieve IC50 on UniProt:Q92769; query FC(F)(F)c1nc(-c2cnc(NC3(c4ccccc4)CC3)nc2)no1
Reply: 13

====

# Test Target: HDAC9 (Homo sapiens)
# Sequence (Q9UKV0 whole entry): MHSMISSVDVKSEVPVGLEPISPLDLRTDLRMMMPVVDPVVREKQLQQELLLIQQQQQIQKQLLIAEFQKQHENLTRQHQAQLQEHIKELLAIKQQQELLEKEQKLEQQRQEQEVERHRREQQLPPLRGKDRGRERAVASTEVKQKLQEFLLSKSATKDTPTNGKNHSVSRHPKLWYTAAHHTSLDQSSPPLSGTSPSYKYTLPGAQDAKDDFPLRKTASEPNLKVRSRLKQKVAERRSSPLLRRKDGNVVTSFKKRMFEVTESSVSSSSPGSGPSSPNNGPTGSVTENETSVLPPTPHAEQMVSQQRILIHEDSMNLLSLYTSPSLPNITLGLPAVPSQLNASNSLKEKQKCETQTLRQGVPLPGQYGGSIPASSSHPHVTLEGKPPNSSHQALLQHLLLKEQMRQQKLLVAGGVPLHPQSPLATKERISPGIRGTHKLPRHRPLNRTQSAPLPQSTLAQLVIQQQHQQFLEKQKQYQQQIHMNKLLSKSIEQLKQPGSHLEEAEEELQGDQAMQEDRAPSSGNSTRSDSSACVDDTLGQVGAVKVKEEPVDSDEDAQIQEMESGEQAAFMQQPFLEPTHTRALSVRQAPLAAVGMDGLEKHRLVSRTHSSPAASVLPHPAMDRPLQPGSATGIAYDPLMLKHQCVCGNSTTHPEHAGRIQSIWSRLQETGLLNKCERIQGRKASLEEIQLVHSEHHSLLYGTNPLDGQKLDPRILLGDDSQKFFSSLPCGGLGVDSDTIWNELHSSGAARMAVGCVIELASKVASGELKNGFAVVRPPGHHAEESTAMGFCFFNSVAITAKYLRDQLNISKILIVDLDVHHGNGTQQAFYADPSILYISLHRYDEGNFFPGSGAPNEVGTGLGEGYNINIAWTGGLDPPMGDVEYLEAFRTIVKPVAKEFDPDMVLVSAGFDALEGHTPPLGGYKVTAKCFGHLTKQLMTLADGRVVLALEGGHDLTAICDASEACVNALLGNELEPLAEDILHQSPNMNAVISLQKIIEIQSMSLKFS
# Experiment Description: HDAC9 enzymatic assay
# Type: biochemical
# Details: Table 3 comparison results
Measured Metric: IC50 (µM)
Answer format: numeric, µM implied, no suffix.

Ask: Look up and report measured IC50 (HDAC9 (Homo sapiens)) for the following compound: FC(F)(F)c1nc(-c2cnc(NC3(c4ccccc4)CC3)nc2)no1
Reply: 0.077

====

# Test Target: HDAC11 (Homo sapiens)
# Sequence (Q96DB2 1-347): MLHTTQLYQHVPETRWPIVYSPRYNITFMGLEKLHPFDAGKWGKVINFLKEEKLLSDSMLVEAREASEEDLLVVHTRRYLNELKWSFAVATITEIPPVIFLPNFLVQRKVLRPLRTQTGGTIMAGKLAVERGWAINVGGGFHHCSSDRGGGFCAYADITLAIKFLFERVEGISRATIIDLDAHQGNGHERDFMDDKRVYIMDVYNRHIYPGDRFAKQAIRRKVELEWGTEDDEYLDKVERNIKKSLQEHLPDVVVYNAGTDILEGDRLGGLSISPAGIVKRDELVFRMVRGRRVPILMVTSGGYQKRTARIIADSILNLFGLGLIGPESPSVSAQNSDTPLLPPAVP
Measured Metric: IC50

Ask: Find the measured IC50 of FC(F)(F)c1nc(-c2cnc(NC3(c4ccccc4)CC3)nc2)no1 and report it.
Reply: > 30 µM

====

# Test Target: HDAC3/NCOR2 (Homo sapiens, UniProt O15379)
# Sequence (Q9Y618 395-489): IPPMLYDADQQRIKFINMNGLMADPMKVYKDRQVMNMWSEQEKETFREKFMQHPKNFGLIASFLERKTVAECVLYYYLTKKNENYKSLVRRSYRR
# Sequence (O15379 whole entry): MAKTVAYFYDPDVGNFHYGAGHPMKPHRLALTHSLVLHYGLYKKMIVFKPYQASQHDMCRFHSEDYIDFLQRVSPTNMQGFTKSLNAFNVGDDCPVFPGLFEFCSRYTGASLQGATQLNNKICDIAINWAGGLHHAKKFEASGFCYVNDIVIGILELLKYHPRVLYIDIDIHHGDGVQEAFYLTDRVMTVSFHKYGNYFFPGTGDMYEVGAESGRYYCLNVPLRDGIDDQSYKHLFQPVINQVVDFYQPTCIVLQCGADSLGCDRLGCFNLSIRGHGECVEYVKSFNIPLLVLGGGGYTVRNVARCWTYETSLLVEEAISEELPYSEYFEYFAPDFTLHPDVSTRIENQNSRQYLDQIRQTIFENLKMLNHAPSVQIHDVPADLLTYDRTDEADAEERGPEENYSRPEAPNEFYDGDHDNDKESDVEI
# Experiment Description: HDAC3 enzymatic assay
Measured Metric: IC50
Express your answer as a number followed by its unit.

Ask: Supply IC50 value. Item: FC(F)(F)c1nc(-c2cnc(NC3(c4ccccc4)CC3)nc2)no1
Reply: 4.1 µM

====

# Test Target: HDAC5 (Homo sapiens)
# Sequence (Q9UQL6 whole entry): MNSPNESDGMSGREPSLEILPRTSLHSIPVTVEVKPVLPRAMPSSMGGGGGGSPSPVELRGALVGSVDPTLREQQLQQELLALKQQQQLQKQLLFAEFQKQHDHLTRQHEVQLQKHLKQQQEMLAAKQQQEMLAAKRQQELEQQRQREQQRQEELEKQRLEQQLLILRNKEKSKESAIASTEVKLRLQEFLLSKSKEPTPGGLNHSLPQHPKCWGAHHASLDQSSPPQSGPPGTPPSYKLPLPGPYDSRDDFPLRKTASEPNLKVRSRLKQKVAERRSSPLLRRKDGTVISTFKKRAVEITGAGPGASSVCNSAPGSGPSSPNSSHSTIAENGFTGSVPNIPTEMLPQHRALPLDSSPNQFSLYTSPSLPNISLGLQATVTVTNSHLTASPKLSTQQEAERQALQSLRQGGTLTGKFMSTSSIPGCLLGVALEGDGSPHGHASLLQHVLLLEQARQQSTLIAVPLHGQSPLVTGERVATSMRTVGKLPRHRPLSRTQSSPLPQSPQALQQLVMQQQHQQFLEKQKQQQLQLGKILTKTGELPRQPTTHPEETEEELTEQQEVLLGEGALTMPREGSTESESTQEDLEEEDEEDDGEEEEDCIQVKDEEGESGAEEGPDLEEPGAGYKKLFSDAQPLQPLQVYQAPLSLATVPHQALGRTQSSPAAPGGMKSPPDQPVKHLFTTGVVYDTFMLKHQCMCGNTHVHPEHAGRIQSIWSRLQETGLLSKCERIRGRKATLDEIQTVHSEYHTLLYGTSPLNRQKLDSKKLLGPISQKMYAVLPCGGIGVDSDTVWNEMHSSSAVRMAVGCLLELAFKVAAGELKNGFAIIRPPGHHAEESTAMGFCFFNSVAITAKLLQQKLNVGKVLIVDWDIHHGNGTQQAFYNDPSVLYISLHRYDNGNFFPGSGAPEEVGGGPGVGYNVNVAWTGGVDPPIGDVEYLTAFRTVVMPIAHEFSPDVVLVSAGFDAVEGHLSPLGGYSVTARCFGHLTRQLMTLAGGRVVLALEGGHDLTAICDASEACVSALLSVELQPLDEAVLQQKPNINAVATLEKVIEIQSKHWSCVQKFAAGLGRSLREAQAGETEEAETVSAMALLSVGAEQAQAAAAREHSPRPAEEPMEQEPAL
Measured Metric: pIC50
Bear in mind: pIC50 is minus log10 of a mol/L concentration; give just that figure.

Ask: Give the measured pIC50 for FC(F)(F)c1nc(-c2cnc(NC3(c4ccccc4)CC3)nc2)no1
Reply: 6.60

====

# Test Target: HDAC7 (Homo sapiens, UniProt Q8WUI4)
# Sequence (Q8WUI4 1-952): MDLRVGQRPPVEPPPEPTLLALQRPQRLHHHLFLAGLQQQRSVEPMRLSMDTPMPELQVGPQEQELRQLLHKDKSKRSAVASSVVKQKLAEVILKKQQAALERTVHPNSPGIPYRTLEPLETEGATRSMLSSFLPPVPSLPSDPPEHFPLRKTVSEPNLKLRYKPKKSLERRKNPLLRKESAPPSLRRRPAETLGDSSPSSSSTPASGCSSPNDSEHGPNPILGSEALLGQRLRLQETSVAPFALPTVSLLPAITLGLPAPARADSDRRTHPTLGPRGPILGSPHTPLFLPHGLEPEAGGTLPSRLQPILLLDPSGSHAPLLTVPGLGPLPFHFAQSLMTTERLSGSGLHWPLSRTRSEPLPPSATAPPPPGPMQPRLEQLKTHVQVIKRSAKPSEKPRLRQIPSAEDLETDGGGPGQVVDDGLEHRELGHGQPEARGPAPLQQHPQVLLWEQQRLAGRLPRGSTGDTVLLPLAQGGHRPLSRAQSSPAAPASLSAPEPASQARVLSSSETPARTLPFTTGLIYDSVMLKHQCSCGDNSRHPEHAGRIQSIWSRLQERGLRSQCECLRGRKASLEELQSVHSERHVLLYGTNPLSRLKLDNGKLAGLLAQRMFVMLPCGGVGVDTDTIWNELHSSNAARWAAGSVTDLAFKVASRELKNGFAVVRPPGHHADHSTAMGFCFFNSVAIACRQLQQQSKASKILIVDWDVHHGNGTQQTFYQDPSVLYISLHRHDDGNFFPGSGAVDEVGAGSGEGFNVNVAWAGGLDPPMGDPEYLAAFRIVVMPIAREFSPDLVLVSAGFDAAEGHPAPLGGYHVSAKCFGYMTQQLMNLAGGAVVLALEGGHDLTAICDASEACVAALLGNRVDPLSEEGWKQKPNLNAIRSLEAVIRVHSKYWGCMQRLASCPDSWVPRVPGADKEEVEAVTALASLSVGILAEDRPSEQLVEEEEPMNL
Measured Metric: IC50 (nM)
Kindly provide the numeric value in nM only, without the unit symbol.

Ask: Output reported IC50 of the compound FC(F)(F)c1nc(-c2cnc(NC3(c4ccccc4)CC3)nc2)no1 on HDAC7 (Homo sapiens, UniProt Q8WUI4).
Reply: 20

This collection of values is drawn from patent US20200171028A1.
